# studySystem: MRCKβ (Homo sapiens, UniProt Q9Y5S2)
# Construct: purchased Carna Biosciences
# Sequence (Q9Y5S2 whole entry): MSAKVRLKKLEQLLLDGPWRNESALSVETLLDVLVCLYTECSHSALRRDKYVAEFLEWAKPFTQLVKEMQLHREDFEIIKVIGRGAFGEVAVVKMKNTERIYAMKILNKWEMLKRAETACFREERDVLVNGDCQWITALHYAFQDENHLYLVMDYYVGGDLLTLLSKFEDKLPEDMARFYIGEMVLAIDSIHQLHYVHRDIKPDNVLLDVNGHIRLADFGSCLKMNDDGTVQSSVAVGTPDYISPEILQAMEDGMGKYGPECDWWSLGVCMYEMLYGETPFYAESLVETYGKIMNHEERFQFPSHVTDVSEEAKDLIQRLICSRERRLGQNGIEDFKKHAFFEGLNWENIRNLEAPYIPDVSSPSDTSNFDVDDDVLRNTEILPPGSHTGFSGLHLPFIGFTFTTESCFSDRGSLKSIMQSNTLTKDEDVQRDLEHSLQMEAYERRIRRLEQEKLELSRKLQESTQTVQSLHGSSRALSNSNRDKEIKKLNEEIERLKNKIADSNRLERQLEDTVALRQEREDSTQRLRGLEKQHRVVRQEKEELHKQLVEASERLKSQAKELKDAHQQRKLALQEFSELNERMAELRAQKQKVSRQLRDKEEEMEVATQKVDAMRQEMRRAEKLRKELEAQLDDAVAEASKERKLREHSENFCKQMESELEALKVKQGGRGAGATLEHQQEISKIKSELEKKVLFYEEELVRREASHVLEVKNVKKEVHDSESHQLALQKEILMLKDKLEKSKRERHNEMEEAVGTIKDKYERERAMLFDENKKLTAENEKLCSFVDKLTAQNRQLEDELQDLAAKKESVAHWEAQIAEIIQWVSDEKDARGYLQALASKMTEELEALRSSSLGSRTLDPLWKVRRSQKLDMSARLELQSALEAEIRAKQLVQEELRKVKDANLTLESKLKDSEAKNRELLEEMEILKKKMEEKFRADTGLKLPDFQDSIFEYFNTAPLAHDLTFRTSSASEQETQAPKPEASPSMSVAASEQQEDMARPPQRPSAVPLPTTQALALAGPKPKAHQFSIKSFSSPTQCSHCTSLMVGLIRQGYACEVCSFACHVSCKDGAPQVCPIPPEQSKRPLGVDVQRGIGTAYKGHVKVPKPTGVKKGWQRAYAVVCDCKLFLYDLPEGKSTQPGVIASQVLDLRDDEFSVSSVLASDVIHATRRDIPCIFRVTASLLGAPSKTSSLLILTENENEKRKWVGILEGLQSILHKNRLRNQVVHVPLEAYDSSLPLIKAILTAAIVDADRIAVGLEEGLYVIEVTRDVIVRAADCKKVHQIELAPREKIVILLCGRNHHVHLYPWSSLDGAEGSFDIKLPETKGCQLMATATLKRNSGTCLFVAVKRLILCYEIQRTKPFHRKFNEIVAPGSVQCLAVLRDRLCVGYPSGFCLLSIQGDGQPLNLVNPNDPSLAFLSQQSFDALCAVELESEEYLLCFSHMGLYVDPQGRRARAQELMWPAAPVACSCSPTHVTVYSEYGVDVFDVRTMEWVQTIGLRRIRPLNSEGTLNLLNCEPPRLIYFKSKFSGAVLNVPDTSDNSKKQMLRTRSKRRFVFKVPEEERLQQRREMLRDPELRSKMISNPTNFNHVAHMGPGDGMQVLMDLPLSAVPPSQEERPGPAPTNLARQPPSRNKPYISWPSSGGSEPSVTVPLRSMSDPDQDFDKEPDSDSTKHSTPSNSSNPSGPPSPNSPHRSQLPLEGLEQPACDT
# assayProtocol: Kinase panel profiling at 1 µmol/L (mobility shift assay, Carna)
# Type: biochemical
# conditionNotes: 1 µmol/L of BTK inhibitor
A collection of compounds and their measured Percentage inhibition of kinase enzyme activity
Response body: numeric value in %, unit text excluded.

[
  {
    "compound": "COc1ccc(F)cc1C(=O)NCc1ccc(-c2nn([C@@H](C)C(F)(F)F)c(N)c2C(N)=O)cc1 [pirtobrutinib]",
    "observedValue": 0.61
  },
  {
    "compound": "CC#CC(=O)N1CCC[C@H]1c1nc(-c2ccc(C(=O)Nc3ccccn3)cc2)c2c(N)nccn12 [acalabrutinib]",
    "observedValue": -15.91
  }
]

Report Percentage inhibition of kinase enzyme activity for C=CC(=O)N1CCC[C@@H](n2nc(-c3ccc(Oc4ccccc4)cc3)c3c(N)ncnc32)C1 [ibrutinib] please.
-7.55

Report Percentage inhibition of kinase enzyme activity for O=C(c1ccc(Oc2ccccc2)cc1Cl)c1c[nH]c2ncnc(N[C@@H]3CC[C@@H](CO)OC3)c12 [nemtabrutinib] please.
-5.25
